- System: Rattus norvegicus
- TEST PROTOCOL: In vivo triglyceride lowering activity when dosed as 0.01 % of the diet
- Format: functional
Lab note: cut-off is 90%. Strictly less in serum triglyceride level, percent of control is True. Exactly 90% or more is False.

// below: answered compounds
CCCCCCCCCCCCCCCCNc1ccc(C(=O)NN)cc1 | False
CCCCCCCCCCCCCCCCNc1ccc(C(=O)NC(C)(C)C(=O)O)cc1 | True
CCCCCCCCCCCCCCCCNc1ccc(CCCC(=O)O)cc1 | True
CCCCCCCCCCCCCCCCNc1ccc(C(=O)CC(=O)OCC)cc1 | True
CCCCCCCCCCCCCCCCNc1ccc(C(=O)NCCS(=O)(=O)O)cc1 | True
CCCCCCCCCCCCCCCCNc1ccc(C(=O)NC(=O)c2ccccc2)cc1 | True

query: Is the reported serum triglyceride level, percent of control for CCCCCCCCCCCCCCCCNc1ccc(C(=O)OCC2CO2)cc1 (stereo unspecified) strictly below 90%?
result: True

query: Given the entry CCCCCCCCCCCCCCCCNc1ccc(C(=O)OC2CCCCO2)cc1 (stereo unspecified) , would its reported serum triglyceride level, percent of control be below 90%?
result: False

----------
- System: Rattus norvegicus
- TEST PROTOCOL: In vivo sterol lowering activity at dose of 0.10 % of the diet
- Assay type: functional
In this section, each of the molecules is paired with its reported serum sterol level, percent of control.
Answer with a number only, understood to be in %.

CCCCCCCCCCCCCCCCNc1ccc(C(=O)NC(C)C(=O)O)cc1 (centres undefined) | 102
CCCCCCCCCCCCCCCCNc1ccc(CO)cc1.Cl | 99
CCCCCCCCCCCCCCCCN(C(=O)C(F)(F)F)c1ccc(C(=O)N2CCCCCC2)cc1 | 95
CCCCCCCCCCCCCCCCNc1ccc(C(=O)Oc2cccnc2)cc1 | 93
CCCCCCCCCCCCCCCCN(CCCCCCCCCCCCCCCC)c1ccc(CCC(=O)OCC)cc1 | 94

query: Please give measured serum sterol level, percent of control of the following entry: CCCCCCCCCCCCCCN(C)c1ccc(C(=O)O)cc1
result: 97

query: # return recorded serum sterol level, percent of control for input CCCCCCCCCCCCCCCCN(C=O)c1ccc(C(=O)OCC)cc1
result: 96

query: Please give measured serum sterol level, percent of control of the following entry: CCCCCCCCCCCCCCCCNc1ccc(C(=O)OCC)cc1C
result: 103

query: Please report the measured serum sterol level, percent of control for CCCCCCCCCCCCCCCCNc1ccc(C(=O)O)c(C)c1
result: 103

query: Using known records, supply serum sterol level, percent of control for CCCCCCCCCCCCCCCCNc1ccc(O)cc1
result: 92

query: Tell me its serum sterol level, percent of control given CCCCCCCCCCCCCCCCNc1ccc(C(=O)OCC)c(F)c1 as the entry.
result: 90

query: Please indicate serum sterol level, percent of control recorded for CCCCCCCCCCCCCCCCNc1ccc(C(O)C(N)=O)cc1 (centres undefined)
result: 94

query: Please give the documented serum sterol level, percent of control of CCCCCCCCCCCCCCCCNc1ccc(C#N)cc1
result: 96

query: Tell me its serum sterol level, percent of control given CCCCCCCCCCCCCCCCNc1ccc(CC(=O)O)cc1 as the entry.
result: 87

query: Could you please provide reported serum sterol level, percent of control for CCCCCCCCCCCCCCCCNc1ccc(C(=O)C(C)(C)C(=O)OCC)cc1 ? Thanks!
result: 90

query: Return serum sterol level, percent of control (reported value) for this molecule: CCCCCCCCCCCCCCCCNc1ccc(C(=O)NCC(=O)OCC)cc1
result: 92

query: Give serum sterol level, percent of control for the following molecule: CCCCCCCCCCCCCCCCNc1ccc(C(C)O)cc1 (centres undefined)
result: 93

query: Note serum sterol level, percent of control for the molecule shown: CCCCCCCCCCCCCCCCNc1ccc(C(=O)OC)c(F)c1
result: 99

query: Assign serum sterol level, percent of control to the following record: CCCCCCCCCCCCCCCCNc1ccc(C(=O)Oc2ccc(Cl)cc2)cc1
result: 91

----------
- TARGET UNDER TEST: UniProt O70536
- TEST PROTOCOL: In vitro inhibition of acyl coenzyme A:cholesterol acyltransferase
- Design: concentration or dose not given beside the values
- MEASUREMENT CONDITIONS: concentration not given here
Let's look at some compounds and their measured inhibition.

CCCCCCCCCCCCCCCCNc1ccc(C(=O)NS(=O)(=O)c2ccc(C)cc2)cc1 | < 77%

query: With UniProt O70536 as the test system, provide measured inhibition for this compound: CCCCCCCCCCCCCCCCNc1ccc(CCCC(=O)O)cc1
result: < 32%

query: Supply inhibition measured with UniProt O70536 for CCCCCCCCCCCCCCCCNc1ccc(C(=O)NS(=O)(=O)c2ccc([N+](=O)[O-])cc2)cc1 .
result: < 43%

query: Write down the reported inhibition (system: UniProt O70536) of CCCCCCCCCCCCCCCCN(CC)c1ccc(C(=O)O)cc1
result: < 72%

query: Name the recorded inhibition of CCCCCCCCCCCCCCCCN(C(C)=O)c1ccc(CO)cc1 , assay system UniProt O70536.
result: < 22%

----------
- TARGET UNDER TEST: Sterol O-acyltransferase 1 (Rattus norvegicus) (UniProt O70536)
- TEST PROTOCOL: In vitro inhibition of acyl coenzyme A:cholesterol acyltransferase
- Design: concentration or dose not given beside the values
- MEASUREMENT CONDITIONS: concentration not given here
The following compounds are listed with their measured inhibition values.

CCCCCCCCCCCCCCCCN(C(=O)C(F)(F)F)c1ccc(C(=O)N2CCCCCC2)cc1 | < 75%
CCCCCCCCCCCCCCCCNC1CCC(C(=O)OC)CC1 (stereo unspecified) | < 37%
CCCCCCCCCCCCCCCCNc1ccc(C(=O)C(C#N)C(=O)OCC)cc1 (stereo unspecified) | < 40%
CCCCCCCCCCCCCCCCNc1ccc(C(=O)OCC(COC)OC)cc1 (stereo unspecified) | < 24%
C=CCOC(=O)c1ccc(NCCCCCCCCCCCCCCCC)cc1 | < 40%

Now turn to the next compound.
query: Give inhibition for CCCCCCCCCCCCCCCCNc1ccc(C(=O)OC)c(F)c1
result: < 23%

----------
Form field: inhibition (one value per entry).
- TARGET UNDER TEST: UniProt:O70536
- Sequence (whole entry): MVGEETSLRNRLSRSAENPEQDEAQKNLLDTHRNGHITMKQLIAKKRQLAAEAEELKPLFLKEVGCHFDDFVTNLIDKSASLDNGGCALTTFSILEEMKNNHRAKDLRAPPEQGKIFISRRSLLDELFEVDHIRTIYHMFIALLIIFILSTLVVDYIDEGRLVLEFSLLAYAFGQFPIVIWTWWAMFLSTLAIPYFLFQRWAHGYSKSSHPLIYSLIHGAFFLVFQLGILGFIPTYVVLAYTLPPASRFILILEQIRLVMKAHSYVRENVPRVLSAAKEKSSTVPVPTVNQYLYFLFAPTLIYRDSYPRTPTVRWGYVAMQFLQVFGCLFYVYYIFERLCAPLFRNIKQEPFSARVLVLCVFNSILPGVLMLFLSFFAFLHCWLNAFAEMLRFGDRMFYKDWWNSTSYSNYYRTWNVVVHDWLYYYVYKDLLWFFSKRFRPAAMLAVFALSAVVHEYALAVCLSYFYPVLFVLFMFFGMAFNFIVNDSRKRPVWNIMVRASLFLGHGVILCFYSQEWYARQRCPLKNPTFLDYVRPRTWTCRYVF
- TEST PROTOCOL: In vitro inhibition of acyl coenzyme A:cholesterol acyltransferase
- Set-up: concentration or dose not given beside the values
- MEASUREMENT CONDITIONS: concentration not given here

Reference set (3 entries):
CCCCCCCCCCCCCCCCNc1ccc(C(=O)CC(=O)O)cc1 | < 28%
CCCCCCCCCCCCCCCCN(C(C)=O)c1ccc(C(OC(C)=O)C(N)=O)cc1 (stereo not given) | < 40%
CCCCCCCCCCCCCCCCN(C(=O)C(F)(F)F)c1ccc(C(=O)NNC(C)=O)cc1 | < 50%

query: Find the measured inhibition of CCCCCCCCCCCCCCCCNc1ccc(C(=O)Oc2cccnc2)cc1 and report it.
result: < 22%

query: Provide inhibition value for the following molecule: CCCCCCCCCCCCCCCCNc1ccc(C(=O)O)cc1F
result: < 27%

query: Answer with the recorded inhibition of CCCCCCCCCCCCCCCCNc1csc(C#N)c1 only.
result: < 41%

query: Please look at this molecule and report its inhibition: CCCCCCCCCCCCCCCCNc1ccc(SCC(=O)O)cc1
result: < 22%

query: Using known records, supply inhibition for CCCCCCCCCCCCCCCCNc1ccc(C(=O)COC)cc1
result: < 47%

query: Read off the recorded inhibition for CCCCCCCCCCCCCCCCN(C(=O)C(F)(F)F)c1ccc(C(=O)N2CCCCC2)cc1
result: < 68%
